Origin of measurements: the PETadex activity labels (doi:10.1021/acscatal.9b00568)

substrate: PET; test: Proxy for plastic degradation [HPLC-UV]; conditions: pH 9; 30 °C; 72 h

protein: unnamed (protein) MNFPRASRLMQAAVLGGLMAVSAAATAQTNPYARGPNPTAASLEASAGPFTVRSFTVSRPSGYGAGTVYYPTNAGGTVGAIAIVPGYTARQSSIKWWGPRLASHGFVVITIDTNSTLDQPSSRSSQQMAALRQVASLNGTSSSPIYGKVDTARMGVMGWSMGGGGSLISAANNPSLKAAAPQAPWFSSTNFSSVTVPTLIFACENDSIAPVNSSALPIYDSMSRNAKQFLEINGGSHSCANSGNSNQALIGKKGVAWMKRFMDNDTRYSTFACENPNSTRVSDFRTANCS
measurement-units: µM
Proxy for plastic degradation: 11.4
